method-notes: ATG_PXRE_CIS: Attagene CIS-FACTORIAL HepG2 Assay for human Pregnane X Receptor Element (PXRE) (AID 2282957)
experimental-conditions: HepG2 Attagene CIS-FACTORIAL PXRE reporter, mRNA; actives raise or lower the signal
Activity calls are given as the source filed them. The calls were made as follows: active = hit-call score of the fitted dose curve at least 0.9, where 1 is the maximum; inactive = score below 0.9.
Valid outcomes are listed here; reply with one: True for active, False for inactive

Prompt: What call does the record list for `C=CCOC(=O)/C=C\C(=O)OCC=C` ?
Completion: True

Prompt: What call does the record list for `O=C(O)C1=NN(c2ccc(S(=O)(=O)O)cc2)C(=O)C1` ?
Completion: True

Prompt: What call does the record list for CCCCCCCC1CCCC1=O (stereo unspecified) ?
Completion: True

Prompt: What call does the record list for CCCCCCC(O)CCOC(C)=O (stereo unspecified) ?
Completion: True

Prompt: What call does the record list for `[Cl][Dy]([Cl])[Cl]` ?
Completion: False

Prompt: What call does the record list for COC(=O)C(C)Oc1ccc(Oc2ncc(C(F)(F)F)cc2Cl)cc1 (stereo unspecified) ?
Completion: True

Prompt: What call does the record list for `CC/C=C\CCOC(=O)C(C)C` ?
Completion: False

Prompt: What call does the record list for `CCCCCCCCCCOC(=O)c1ccccc1C(=O)OCCCCCCCC` ?
Completion: True

Prompt: What call does the record list for CC/C=C\CCOC(C)OCC (stereo unspecified) ?
Completion: False

Prompt: What call does the record list for `COc1ccc(OC)cc1` ?
Completion: False

Prompt: What call does the record list for `CC(C)N(c1ccccc1)C(C)C` ?
Completion: False
